- target-system: Fn1419 (Fusobacterium nucleatum subsp. nucleatum, UniProt Q8RDT4)
- Construct: Fn1419 (GeneBank: AAL95612.1, residues 1–395); His-tag (N); made in house; host or cells: E. coli BL21 (DE3)
- Sequence (Q8RDT4 whole entry, the tested form may be a part): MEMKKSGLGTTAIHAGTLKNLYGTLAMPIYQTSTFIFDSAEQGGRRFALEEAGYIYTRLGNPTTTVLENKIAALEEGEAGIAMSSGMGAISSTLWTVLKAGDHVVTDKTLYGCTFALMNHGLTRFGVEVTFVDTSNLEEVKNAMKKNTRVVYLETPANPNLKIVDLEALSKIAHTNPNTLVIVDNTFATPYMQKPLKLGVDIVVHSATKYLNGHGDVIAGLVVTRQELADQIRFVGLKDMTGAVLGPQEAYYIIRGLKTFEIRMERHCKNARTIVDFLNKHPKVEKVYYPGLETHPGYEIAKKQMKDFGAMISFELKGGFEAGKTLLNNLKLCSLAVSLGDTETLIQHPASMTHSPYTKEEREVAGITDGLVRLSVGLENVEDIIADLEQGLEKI
- Format: biochemical
- condition-parameters: 100 μM compound, 5.75 nM Fn1419, 500 μM L-cysteine
Where a SMILES comes first, the peptide text is derived from it. The star is where a group is joined. PhAc = O=C(Cc1ccccc1)*
assay-endpoint: product increase rate (MGL^Cys activity of Fn1419 enhanced) (%)

{"compound": "CCOC(=O)CNC(=O)[C@@H]1CCCN1C(=O)Cc1ccccc1 [noopept] (PhAc-Pro-Gly-OEt)", "target-system": "Fn1419 (Fusobacterium nucleatum subsp. nucleatum, UniProt Q8RDT4)", "val": 21.8}
{"compound": "Cl.NCC(CC(=O)O)c1ccccc1 (stereo not drawn) [phenibut HCl]", "target-system": "Fn1419 (Fusobacterium nucleatum subsp. nucleatum, UniProt Q8RDT4)", "val": 61.8}
{"compound": "O.O.O.O.O.OC[C@H]1O[C@H](OC[C@H]2O[C@H](O[C@]3(CO)O[C@H](CO)[C@@H](O)[C@@H]3O)[C@H](O)[C@@H](O)[C@@H]2O)[C@H](O)[C@@H](O)[C@H]1O [D-raffinose pentahydrate]", "target-system": "Fn1419 (Fusobacterium nucleatum subsp. nucleatum, UniProt Q8RDT4)", "val": 72.5}
{"compound": "O=C(O)C1(O)C[C@@H](O)C(O)[C@H](O)C1 (stereo partly drawn)", "target-system": "Fn1419 (Fusobacterium nucleatum subsp. nucleatum, UniProt Q8RDT4)", "val": 35.1}
{"compound": "NCCCC(=O)O", "target-system": "Fn1419 (Fusobacterium nucleatum subsp. nucleatum, UniProt Q8RDT4)", "val": 9.9}
{"compound": "O=C1CCC[C@@H]2[C@H]3CCCN4CCC[C@@H](CN12)[C@@H]34", "target-system": "Fn1419 (Fusobacterium nucleatum subsp. nucleatum, UniProt Q8RDT4)", "val": 4.9}
{"compound": "CN(C)CCc1ccc(O)cc1.Cl [hordenine HCl]", "target-system": "Fn1419 (Fusobacterium nucleatum subsp. nucleatum, UniProt Q8RDT4)", "val": 32.1}
{"compound": "CCCCCCCC/C=C\\CCCCCCCC(N)=O [oleamide]", "target-system": "Fn1419 (Fusobacterium nucleatum subsp. nucleatum, UniProt Q8RDT4)", "val": 24.6}
{"compound": "OC[C@@H](O)[C@@H](O)CO", "target-system": "Fn1419 (Fusobacterium nucleatum subsp. nucleatum, UniProt Q8RDT4)", "val": 16.4}
